experiment: gradient 5% acetonitrile 3 min, to 50% in 2 min, to 85% in 15 min, held 3 min, 100 µL/min; conditions: column: Zorbax Extend-C18 2.1 x 50 mm; eluents: water / acetonitrile, 0.1% formic acid
Here, each record is paired with measured RP-LC retention time data.

# molecule, RP-LC retention time / s
measured = [
    ("OCCN1CCN(CCCN2c3ccccc3C=Cc3ccccc32)CC1", 692),
    ("CCCNC(=O)N(C1CCOCC1)C1CCN(C(=O)Nc2c(F)cccc2F)CC1", 685),
    ("O=C(Cc1cccs1)N1CCn2c(nnc2-c2ccccc2)C1", 679),
]

---

experiment: gradient 5% acetonitrile 3 min, to 50% in 2 min, to 85% in 15 min, held 3 min, 100 µL/min; details: column: Zorbax Extend-C18 2.1 x 50 mm; eluents: water / acetonitrile, 0.1% formic acid
Outcome label depends on RP-LC retention time relative to 900 s: at/above gives y, below gives n.

# molecule, discrete.label
data = [
    ("COc1ccc(NC(=O)Cn2nc3nc(N4CCCC(C)C4)ccn3c2=O)cc1F (stereo not drawn)", "n"),
    ("CCOc1ccc(-c2cc3c(=O)n(Cc4nc(-c5ccccc5OC)no4)ncn3n2)cc1", "y"),
    ("O=C(C1CCN(c2ncnc3c2oc2ccccc23)CC1)N1CCC(Cc2ccccc2)CC1", "y"),
    ("CC(C)Cn1cc(CCNC(=O)c2ccccc2C(F)(F)F)c2cccnc21", "n"),
    ("CC1CCCCN1c1cc(-n2cnc(C(=O)Nc3ccc4c(c3)OCCO4)c2)ncn1 (stereo not drawn)", "y"),
    ("O=C(C1=CN(c2cc(F)cc(F)c2)c2cc(F)ccc2S1(=O)=O)N1CCCC1", "n"),
    ("Cc1ccn2c(NC(=O)c3ccc([N+](=O)[O-])cc3)c(-c3ccccc3)nc2c1", "n"),
    ("Cc1cccc(Nc2c(-c3ccc(Cl)cc3)nc3cnccn23)c1C", "y"),
    ("CC(C)CN(Cc1ccc(F)cc1)Cc1cc(=O)n2cc(Cl)ccc2n1", "n"),
    ("CC(=O)Nc1nsc(N2CCC(C(=O)N3CCN(c4ccc(C)cc4)CC3)CC2)n1", "n"),
    ("CC(C)(C)c1ccc(NC(=O)CSc2ncn[nH]2)cc1", "n"),
    ("CCC(C)NC(=O)c1cnn(-c2ccc(-c3nc(C(C)(C)C)no3)cn2)c1C (stereo not drawn)", "y"),
    ("CC(=O)c1cccc(NC(=O)Cn2c(=O)nc(NC3CCCC3)c3ccccc32)c1", "n"),
    ("CC(C)n1c(=O)oc2cc(-c3noc(-c4ccccc4Br)n3)ccc21", "y"),
    ("CCC(C)(C)C(=O)N1CCCC(c2nc(CCNC(=O)C(C)C)cs2)C1 (stereo not drawn)", "n"),
    ("Cc1nc2cc(N3CC(C(=O)Nc4ccc(F)cc4C)CC3=O)ccc2o1 (stereo not drawn)", "n"),
    ("Cc1cccc(-c2nc(Cn3nnc(C(=O)NCc4ccc(C(F)(F)F)cc4)c3C)c(C)o2)c1", "y"),
    ("O=C(Cc1c[nH]c2ccccc12)N1CCN2CCS(=O)(=O)N(C3CC3)C(=O)C2C1 (stereo not drawn)", "n"),
    ("Cc1ccc(-c2noc(Cc3nc(-c4cccc(Cl)c4)cs3)n2)cc1", "y"),
    ("CCC(C)NC(=O)c1cnn(-c2cc(-c3nc(C(C)(C)C)no3)ccn2)c1C (stereo not drawn)", "n"),
    ("Cc1cc(NC(=O)C2CCCN(c3nnc4cccc(C)n34)C2)ccc1F (stereo not drawn)", "n"),
    ("COCCN1C(=O)[C@H]2CN(Cc3cccc(C#N)c3)C[C@H]2C1=O", "n"),
]
